- TARGET OR TEST SYSTEM: T1, La-WT (La autoantigen, LARP3) (human, UniProt P05455 1-408)
- T1 sequence: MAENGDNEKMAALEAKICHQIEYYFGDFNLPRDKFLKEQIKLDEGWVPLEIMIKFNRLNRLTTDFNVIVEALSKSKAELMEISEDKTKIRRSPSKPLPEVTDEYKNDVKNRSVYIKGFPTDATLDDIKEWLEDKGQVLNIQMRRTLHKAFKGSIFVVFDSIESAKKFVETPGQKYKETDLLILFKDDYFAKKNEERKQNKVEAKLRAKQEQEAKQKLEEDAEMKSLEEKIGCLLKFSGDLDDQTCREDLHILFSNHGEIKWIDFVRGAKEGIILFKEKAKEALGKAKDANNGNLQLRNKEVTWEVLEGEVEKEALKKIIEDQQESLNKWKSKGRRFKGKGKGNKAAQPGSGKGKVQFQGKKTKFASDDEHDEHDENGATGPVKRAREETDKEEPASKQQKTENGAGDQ
- TEST METHOD NOTES: EMSA; EMSA: about 20 mM Tris-HCl pH 7.4, 150 mM NaCl, 3 mM MgCl2, 0.5 mM EDTA, IGEPAL, glycerol, 50 nM RNA, RT 10 min (with compounds: 18 mM Tris, 135 mM NaCl, 2.7 mM MgCl2, 0.45 mM EDTA, 0.025% IGEPAL, 2% glycerol, 10% DMSO); FP: 20 mM Tris-HCl pH 7.5, 3 mM MgCl2, 0.5 mM EDTA, 150 mM NaCl, 0.05% IGEPAL, 100 ug/ml BGG, RT 15 min
- ASSAY SETUP: protein: recombinant; tags: His; no structure predicted
MEASURED ATTRIBUTE: Kd (nM)
Record the value in nM, omitting the unit from your answer.

### Prompt Query (binder): UGCUGUUUU (ssRNA) [fPolyU] ; field requested: Kd
### Response 138

Hello, the source for this data is paper PMC5349447, in case you need it.
